test: Circular dichroism spectroscopy (secondary structure); type: physicochemical; conditions: ratio between molar ellipticity values at 222 and 208 nm; in the presence of 50% TFE; R = 1 perfect α-helix
Field: R-value. Provide a value for each of the substances that follow.
Note: the reply should be a number with no unit written.

Query string: Identify measured R-value associated with GLRKRLRKFRNKIKEKKCVRQNNKRVCK-NH2 [sC18-Tylotoin, chimeric peptide, CPP sC18 fused N-terminally to Tylotoin]
Result string: 0.87

Query string: Identify measured R-value associated with KCVRQNNKRVCKGLRKRLRKFRNKIKEK-NH2 [Tylotoin-sC18, chimeric peptide, CPP sC18 fused to the C-terminus of Tylotoin]
Result string: 0.85

Query string: Identify measured R-value associated with KCVRQNNKRVCK-NH2 [Tylotoin, wound healing promoting peptide from skin of the salamander Tylototriton verrucosus; made as C-terminal amide without disulfide bridge, reference compound]
Result string: 0.51

Query string: Identify measured R-value associated with GLRKRLRKFRNKKCVRQNNKRVCK-NH2 [sC18*-Tylotoin, chimeric peptide, CPP sC18* fused N-terminally to Tylotoin]
Result string: 0.74

* * *

assay: Circular dichroism spectroscopy (secondary structure); assay type: physicochemical; conditions: CD, 20 µM peptide, 10 mM phosphate buffer pH 7.0, 20 °C; calculated from ellipticity at 222 nm
Field: Percentage of the α-helix content: phosphate buffer. Provide a value for each of the substances that follow.
Numeric only. Scale: %

Query string: Identify measured Percentage of the α-helix content: phosphate buffer associated with KCVRQNNKRVCK-NH2 [Tylotoin, wound healing promoting peptide from skin of the salamander Tylototriton verrucosus; made as C-terminal amide without disulfide bridge, reference compound]
Result string: 15.6

Query string: Identify measured Percentage of the α-helix content: phosphate buffer associated with KCVRQNNKRVCKGLRKRLRKFRNKIKEK-NH2 [Tylotoin-sC18, chimeric peptide, CPP sC18 fused to the C-terminus of Tylotoin]
Result string: 12.1

Query string: Identify measured Percentage of the α-helix content: phosphate buffer associated with GLRKRLRKFRNKIKEKKCVRQNNKRVCK-NH2 [sC18-Tylotoin, chimeric peptide, CPP sC18 fused N-terminally to Tylotoin]
Result string: 13.1

Query string: Identify measured Percentage of the α-helix content: phosphate buffer associated with GLRKRLRKFRNKKCVRQNNKRVCK-NH2 [sC18*-Tylotoin, chimeric peptide, CPP sC18* fused N-terminally to Tylotoin]
Result string: 6.9
